assay: chemical genetic growth profiling, strain panel (AID 1159580);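 note: tested at 20 µM; growth read once vehicle control cultures reached saturation at 30 °C; 1 = growth at the plate median or of vehicle wells; lower values mean less growth of the strain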; details: S. cerevisiae deletion strains, growth OD, locus YLR418C, strain cdc73
About 2,000 (36%) of roughly 5,500 compounds were called active. Another 18% or so got no clear call; they are omitted. Cut-off read from the data, not from the text of the source: active = normalized growth mostly below about 0.91 (no sharp cut-off); inconclusive = no clear call, values can overlap the other calls; inactive = mostly above about 0.92. The list shows a part of the results.
Use one of these outcomes when replying: y (active), n (inactive)

Request: Each compound tested received a call. Report the one for "N[C@@H](Cc1ccc(O)c(O)c1)C(=O)O" .
Result: n

Request: Each compound tested received a call. Report the one for "OC[C@@H]1CCCN2CCCC[C@H]12" .
Result: n

Request: Each compound tested received a call. Report the one for CC1(C)C(=O)C=C[C@@]2(C)C1=C(O)C(=O)[C@]1(C)C2CC[C@@]2(C)[C@H](c3ccoc3)C[C@H]3O[C@]321 (stereo partly drawn) .
Result: y

---

test: chemical genetic growth profiling, strain panel (AID 1159580); conditions: S. cerevisiae deletion strains, growth OD, locus YFR003C, strain YPI1, active compounds read low
Screen size: about 5,500 compounds; about 2,000 (36%) were called active. Roughly 18% stayed inconclusive and do not appear here. This is one part of the list.
Exercise: state measured normalized growth for each of the molecules provided.

Cc1c(C)c(C)c(CSC(N)=Nc2ccc(F)cc2)c(C)c1C: 1 (inactive)

Kindly give each listed record's normalized growth.
1. CC(C)c1ccc(N2C=Nc3ccc(C(C)C)cc3C2)cc1
2. O=C(NCc1ccncc1)c1ccc(-n2cccn2)cc1
3. Cc1c2c(=O)[nH]ncc2c(-c2ccccc2)n1-c1ccc([N+](=O)[O-])cc1
4. CC(C)c1ccc(NCC(O)CSc2ccccc2)cc1 (stereo unspecified)
5. CSc1cc(-c2ccncc2)nc(-c2cccs2)c1

Result:
["1 (inactive)", "0.98 (inactive)", "0.99 (inactive)", "0.959 (inactive)", "0.96 (inactive)"]

---

assay: chemical genetic growth profiling, strain panel (AID 1159580); conditions: S. cerevisiae deletion strains, growth OD, locus YHR027C, strain rpn1, active compounds read low
The campaign covered roughly 5,500 compounds. About 2,000 (36%) were called active. Roughly 18% stayed inconclusive and do not appear here. The list shows a part of the results.
value kind: normalized growth
Give bare numbers.

Solved entries:
CC1(C)C(=O)C=C[C@@]2(C)C1=C(O)C(=O)[C@]1(C)C2CC[C@@]2(C)[C@H](c3ccoc3)C[C@H]3O[C@]321 (some centres undefined): 0.917
CC(=O)O[C@@H]1C[C@@]2(C)[C@H](c3ccoc3)C[C@H]3O[C@]32[C@]2(C)C(=O)C(O)=C3C(C)(C)C(=O)C=C[C@]3(C)C12 (some centres undefined): 0.965
COc1ccc(C(Cl)=C(c2ccc(OC)cc2)c2ccc(OC)cc2)cc1: 0.989

Kindly give each listed record's normalized growth.
1. C[C@H](N)[C@H](O)c1ccc(O)c(O)c1
2. C=C(C)[C@H]1CC=C(C(=O)O)CC1
3. CO[C@H]1/C=C/O[C@@]2(C)Oc3c(C)c(O)c4c(O)c(c5c(nc6cc(C)ccn65)c4c3C2=O)NC(=O)/C(C)=C\C=C\[C@H](C)[C@H](O)[C@@H](C)C(O)[C@@H](C)[C@H](OC(C)=O)[C@@H]1C (some centres undefined)

Result:
0.996
0.96
1.04

---

assay: chemical genetic growth profiling, strain panel (AID 1159580); conditions: S. cerevisiae deletion strains, growth OD, locus YJL115W, strain asf1, active compounds read low
The whole screen tested about 5,500 compounds, of which about 2,000 (36%) were called active. Not shown: some 18% with an inconclusive outcome. Some of the results follow.
value kind: normalized growth
Numbers only.

Oc1ccc(Cl)c2cccnc12: 0.146
NCC(O)c1ccc(O)cc1 (stereo not drawn): 1.01

Request: Write down normalized growth measured for item "C[n+]1cccc(C(=O)[O-])c1"
Result: 0.956

---

experiment: chemical genetic growth profiling, strain panel (AID 1159580); conditions: S. cerevisiae deletion strains, growth OD, locus YLR262C, strain YPT6 (second series)
The whole screen tested about 5,500 compounds, of which about 2,000 (36%) were called active. Inconclusive results (about 18%) are left out. Cut-off read from the data, not from the text of the source: active = normalized growth mostly below about 0.91 (no sharp cut-off); inconclusive = no clear call, values can overlap the other calls; inactive = mostly above about 0.92. Some of the results follow.
Use one of these outcomes when replying: active, inactive

CC1(C)CCCC2(C)C3C1[C@@H](O)C2(C)C[C@H]3O (stereo not given in full): inactive
CC(=O)/C(=C\c1ccccc1)CC(=O)O: inactive
CN[C@H](CC(=O)O)C(=O)O: inactive
NCCCC[C@H](N[C@@H](CCc1ccccc1)C(=O)O)C(=O)N1CCC[C@H]1C(=O)O: inactive
Cc1c(Nc2ncccc2C(=O)O)cccc1C(F)(F)F: inactive
CCOC(=O)c1oc2c(OC)c(O)cc(O)c2c(=O)c1-c1cc(OC)c(OC)c(OC)c1: active
NC[C@H](O)c1ccc(O)c(O)c1: inactive
C=C(CC)C(=O)c1ccc(OCC(=O)O)c(Cl)c1Cl: inactive

Request: Each molecule tested received a call. Report the one for "C=C(C)[C@H]1CC=C(C(=O)O)CC1" .
Result: inactive

Request: Each molecule tested received a call. Report the one for "COc1cc(OC)c2c(=O)c(-c3ccccc3)c(C)oc2c1OC" .
Result: inactive

Request: Each molecule tested received a call. Report the one for CC(=O)c1c(O)c(C)c(O)c2c1OC1=CC(=O)C(C(C)=O)C(=O)C12C (stereo not given) .
Result: active

Request: Each molecule tested received a call. Report the one for "CCN(CC)CCNC(=O)c1cc(S(C)(=O)=O)ccc1OC" .
Result: inactive

Request: Each molecule tested received a call. Report the one for CC(C)NCC(O)c1ccc(O)c(O)c1 (stereo not given) .
Result: inactive

Request: Each molecule tested received a call. Report the one for "COc1cc2c(c(OC)c1OC)-c1ccc(OC)c(=O)cc1[C@@H](NC(C)=O)CC2" .
Result: inactive

Request: Each molecule tested received a call. Report the one for CC(C)=CCC[C@](C)(O)C1CC=C(C)CC1 (stereo not given in full) .
Result: inactive

---

assay: chemical genetic growth profiling, strain panel (AID 1159580);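 note: tested at 20 µM; growth read once vehicle control cultures reached saturation at 30 °C; 1 = growth at the plate median or of vehicle wells; lower values mean less growth of the strain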; conditions: S. cerevisiae deletion strains, growth OD, locus YGR252W, strain gcn5, active compounds read low
The campaign covered roughly 5,500 compounds. About 2,000 (36%) were called active. Inconclusive results (about 18%) are left out. The list shows a part of the results.
value kind: normalized growth
Numbers only.

CC(=O)Nc1cc([As](=O)(O)O)ccc1O: 1.11
Nc1nc2ncc(C(=O)O)nc2c(=O)[nH]1: 1.07

Kindly give each listed record's normalized growth.
1. C=C[C@](C)(O)CCC=C(C)C
2. NC(=NCCC[C@H](N)C(=O)O)NC(CCC(=O)O)C(=O)O (some centres undefined)

Result:
0.977
0.991

---

assay: chemical genetic growth profiling, strain panel (AID 1159580);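 note: tested at 20 µM; growth read once vehicle control cultures reached saturation at 30 °C; 1 = growth at the plate median or of vehicle wells; lower values mean less growth of the strain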; details: S. cerevisiae deletion strains, growth OD, locus YDR069C, strain doa4, active compounds read low
The whole screen tested about 5,500 compounds, of which about 2,000 (36%) were called active. Not shown: some 18% with an inconclusive outcome. The list shows a part of the results.
value kind: normalized growth
Give bare numbers.

Solved entries:
COC(=O)C[C@H]1C(C)(C)C(=O)[C@@H]2CC3=C4CC(=O)O[C@@H](c5ccoc5)[C@]4(C)CCC3[C@@]1(C)C2=O (some centres not stated): 0.982
CC(C)NCC(O)c1ccc2ccccc2c1 (configuration not stated): 0.987
CC(=O)/C(=C\c1ccccc1)CC(=O)O: 0.982
CCCCC1=NC2(CCCC2)C(=O)N1Cc1ccc(-c2ccccc2-c2nn[nH]n2)cc1: 1.02
O=C(O)c1ccccc1Nc1ccccc1: 1.01
O=C(O)CCCCC1CCSS1 (configuration not stated): 0.982

Request: Write down normalized growth measured for item "C1CNCCN1"
Result: 1.01

---

experiment: chemical genetic growth profiling, strain panel (AID 1159580);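 note: tested at 20 µM; growth read once vehicle control cultures reached saturation at 30 °C; 1 = growth at the plate median or of vehicle wells; lower values mean less growth of the strain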; settings: S. cerevisiae deletion strains, growth OD, locus YNL153C, strain GIM3, active compounds read low
In all, about 5,500 compounds went through this assay and about 2,000 (36%) were called active. Inconclusive results (about 18%) are left out. The list shows a part of the results.
We label by threshold. Values of normalized growth strictly beneath 1 are satisfied. Values of 1 and up are not satisfied.

CC(C)(C)C(=O)NC(=S)Nc1cccc(C(F)(F)F)c1: satisfied
O=C(O)c1ccccc1Nc1cccc(OCc2ccc3ccccc3n2)c1: not satisfied
CC#CCOC(=O)c1c(C)nc2sc3c(c2c1N)CCC(O)C3 (configuration not stated): not satisfied
COc1cc2c(c(OC)c1OC)-c1ccc(OC)c(=O)cc1C(NC(C)=O)CC2 (configuration not stated): not satisfied
O=C(O)CF: not satisfied

Request: Please state whether normalized growth is below 1 for "NC(=S)N/N=C\c1ccc(F)c(Cl)c1"
Result: satisfied

Request: Please state whether normalized growth is below 1 for "CN1CCC(c2c[nH]c3ccc(O)cc23)CC1"
Result: satisfied

Request: Please state whether normalized growth is below 1 for CC1(C)CC2C1(O)CCC1(C)C=CC(O)C21CO (configuration not stated)
Result: not satisfied

Request: Please state whether normalized growth is below 1 for "COc1ccc(CCNC(=S)Nc2cccc(C(F)(F)F)c2)cc1OC"
Result: satisfied

Request: Please state whether normalized growth is below 1 for CCC(C(=O)Nc1ccc(C(F)(F)F)cc1)c1ccccc1 (configuration not stated)
Result: satisfied

Request: Please state whether normalized growth is below 1 for "Oc1c(Br)cc(Br)c2cccnc12"
Result: satisfied

Request: Please state whether normalized growth is below 1 for C=CC(C)(O)CC/C=C(\C)CCC=C(C)C (configuration not stated)
Result: satisfied

Request: Please state whether normalized growth is below 1 for "Cc1[nH]ncc1-c1ccccc1"
Result: satisfied
